run-description: in vitro
Format: cell-based
test-parameters: human, human epidermal progenitors
Ends that are not written are not given here.
viability at 72 h, 10 µM by entry:

substance: YRSRKYSSWY [decapeptide-12, YRSRKYSSWY]
unit-spec: %
viability at 72 h, 10 µM: 99
//
substance: Ac-YRSRKYSSWY-NH2 [P4C, Acetyl-YRSRKYSSWY-amide]
unit-spec: %
viability at 72 h, 10 µM: 99

* * *

viability at 168 h, 3 µM by entry:
run-description: Trypan blue cell viability, 7 days, epidermal progenitors
Assay type: cell-based
test-parameters: human, 3 μM, relative to control, read-out: epidermal progenitor viability after 7 days
Method: The effect of each of the decapeptides upon cell viability was also tested. In particular, cells were incubated with the decapeptide at various concentrations and then counted for viability relative to the control (untreated cells) using trypan blue. Cytotoxicity was measured according to the following formula: [1−(# of cells in control−# of live cells in test sample)/# of cells in control]×100 percent.
Peptide text beside a SMILES is read from it.

molecule: CCCCCCCCCCCCCCCC(=O)N[C@@H](Cc1ccc(O)cc1)C(=O)N[C@@H](CCCNC(=N)N)C(=O)N[C@@H](CO)C(=O)N[C@@H](CCCNC(=N)N)C(=O)N[C@@H](CCCCN)C(=O)N[C@H](Cc1ccc(O)cc1)C(=O)N[C@@H](CO)C(=O)N[C@@H](CO)C(=O)N[C@@H](Cc1c[nH]c2ccccc12)C(=O)N[C@@H](Cc1ccc(O)cc1)C(N)=O [P4B, Palmitoyl-YRSRK[*Y]SSWY-amide] (HELM PEPTIDE1{[CCCCCCCCCCCCCCCC(=O)[*:2]].Y.R.S.R.K.[dY].S.S.W.Y.[am]}$$$$V2.0)
unit-spec: %
viability at 168 h, 3 µM: 100
--
molecule: CCCCCCCCCCCCCCCC(=O)N[C@@H](Cc1ccc(O)cc1)C(=O)N[C@@H](CCCNC(=N)N)C(=O)N[C@@H](CO)C(=O)N[C@@H](CCCNC(=N)N)C(=O)N[C@@H](CCCCN)C(=O)N[C@@H](Cc1ccc(O)cc1)C(=O)N[C@@H](CO)C(=O)N[C@@H](CO)C(=O)N[C@@H](Cc1c[nH]c2ccccc12)C(=O)N[C@@H](Cc1ccc(O)cc1)C(N)=O [P4A, Palmitoyl-YRSRKYSSWY-amide] (HELM PEPTIDE1{[CCCCCCCCCCCCCCCC(=O)[*:2]].Y.R.S.R.K.Y.S.S.W.Y.[am]}$$$$V2.0)
unit-spec: %
viability at 168 h, 3 µM: 100

* * *

run-description: Trypan blue cell viability, 7 days, melanoblasts
Type: cell-based
test-parameters: human, 10 μM, relative to control, read-out: melanoblast viability after 7 days
Peptide text beside a SMILES is read from it.
viability at 168 h, 10 µM by entry:
measurement-type: viability at 168 h, 10 µM

molecule: CCCCCCCCCCCCCCCC(=O)N[C@@H](Cc1ccc(O)cc1)C(=O)N[C@@H](CCCNC(=N)N)C(=O)N[C@@H](CO)C(=O)N[C@@H](CCCNC(=N)N)C(=O)N[C@@H](CCCCN)C(=O)N[C@H](Cc1ccc(O)cc1)C(=O)N[C@@H](CO)C(=O)N[C@@H](CO)C(=O)N[C@@H](Cc1c[nH]c2ccccc12)C(=O)N[C@@H](Cc1ccc(O)cc1)C(N)=O [P4B, Palmitoyl-YRSRK[*Y]SSWY-amide] (HELM PEPTIDE1{[CCCCCCCCCCCCCCCC(=O)[*:2]].Y.R.S.R.K.[dY].S.S.W.Y.[am]}$$$$V2.0)
reported-measurement: 98.5%
//
molecule: CCCCCCCCCCCCCCCC(=O)N[C@@H](Cc1ccc(O)cc1)C(=O)N[C@@H](CCCNC(=N)N)C(=O)N[C@@H](CO)C(=O)N[C@@H](CCCNC(=N)N)C(=O)N[C@@H](CCCCN)C(=O)N[C@@H](Cc1ccc(O)cc1)C(=O)N[C@@H](CO)C(=O)N[C@@H](CO)C(=O)N[C@@H](Cc1c[nH]c2ccccc12)C(=O)N[C@@H](Cc1ccc(O)cc1)C(N)=O [P4A, Palmitoyl-YRSRKYSSWY-amide] (HELM PEPTIDE1{[CCCCCCCCCCCCCCCC(=O)[*:2]].Y.R.S.R.K.Y.S.S.W.Y.[am]}$$$$V2.0)
reported-measurement: 99%
